Data provenance: ChEMBL document CHEMBL1142682

# target_of_assay: Integrin alpha-V/beta-5 (Homo sapiens, UniProt P06756+P18084)
# Sequence (P06756 31-889 limits assumed): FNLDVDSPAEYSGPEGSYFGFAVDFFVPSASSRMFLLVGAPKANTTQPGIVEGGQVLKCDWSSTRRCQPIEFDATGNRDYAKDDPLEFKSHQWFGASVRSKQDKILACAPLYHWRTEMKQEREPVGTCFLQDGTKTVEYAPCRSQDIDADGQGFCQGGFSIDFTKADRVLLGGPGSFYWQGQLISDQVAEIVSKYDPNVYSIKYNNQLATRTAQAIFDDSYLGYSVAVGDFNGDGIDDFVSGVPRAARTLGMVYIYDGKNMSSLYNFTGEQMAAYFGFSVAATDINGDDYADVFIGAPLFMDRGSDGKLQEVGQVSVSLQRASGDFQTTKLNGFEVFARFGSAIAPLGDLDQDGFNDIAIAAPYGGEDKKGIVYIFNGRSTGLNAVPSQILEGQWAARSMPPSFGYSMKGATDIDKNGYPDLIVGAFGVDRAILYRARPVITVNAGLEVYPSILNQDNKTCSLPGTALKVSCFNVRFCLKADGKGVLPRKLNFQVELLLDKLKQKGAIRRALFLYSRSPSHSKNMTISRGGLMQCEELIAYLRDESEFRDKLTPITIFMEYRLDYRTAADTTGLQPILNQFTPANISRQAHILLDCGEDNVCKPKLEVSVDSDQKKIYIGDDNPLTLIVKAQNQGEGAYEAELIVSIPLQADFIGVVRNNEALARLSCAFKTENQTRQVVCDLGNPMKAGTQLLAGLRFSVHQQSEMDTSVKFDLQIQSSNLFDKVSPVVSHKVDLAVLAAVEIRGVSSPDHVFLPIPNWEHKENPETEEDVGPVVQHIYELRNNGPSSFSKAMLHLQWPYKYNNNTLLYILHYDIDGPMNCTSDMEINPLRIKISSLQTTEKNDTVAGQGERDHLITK
# Sequence (P06756 891-1048 limits assumed): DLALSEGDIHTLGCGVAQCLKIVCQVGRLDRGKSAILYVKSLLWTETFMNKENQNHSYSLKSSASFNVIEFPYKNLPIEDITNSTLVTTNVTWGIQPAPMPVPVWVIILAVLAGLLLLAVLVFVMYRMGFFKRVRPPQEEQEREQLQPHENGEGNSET
# Sequence (P18084 24-799 limits assumed): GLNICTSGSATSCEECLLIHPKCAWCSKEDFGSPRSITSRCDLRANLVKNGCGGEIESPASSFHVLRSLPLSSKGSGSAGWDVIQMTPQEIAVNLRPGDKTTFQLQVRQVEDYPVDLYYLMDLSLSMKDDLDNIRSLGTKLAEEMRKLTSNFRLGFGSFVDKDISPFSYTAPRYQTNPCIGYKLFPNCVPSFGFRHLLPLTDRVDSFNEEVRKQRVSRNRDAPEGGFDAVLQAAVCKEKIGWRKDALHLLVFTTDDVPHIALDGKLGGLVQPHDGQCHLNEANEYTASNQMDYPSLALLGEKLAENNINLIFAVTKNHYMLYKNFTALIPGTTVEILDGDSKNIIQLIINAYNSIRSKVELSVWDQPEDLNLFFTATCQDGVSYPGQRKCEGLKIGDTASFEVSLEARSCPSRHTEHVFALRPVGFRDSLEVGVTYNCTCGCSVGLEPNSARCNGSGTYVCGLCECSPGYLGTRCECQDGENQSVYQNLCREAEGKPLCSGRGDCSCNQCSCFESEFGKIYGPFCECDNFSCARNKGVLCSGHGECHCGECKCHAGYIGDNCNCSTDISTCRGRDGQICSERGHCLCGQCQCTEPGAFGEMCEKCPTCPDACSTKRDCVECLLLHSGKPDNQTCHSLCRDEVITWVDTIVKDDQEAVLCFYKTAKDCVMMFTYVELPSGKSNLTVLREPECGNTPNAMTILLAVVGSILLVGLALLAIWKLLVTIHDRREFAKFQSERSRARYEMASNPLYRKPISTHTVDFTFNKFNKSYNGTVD
# protocol: In vitro inhibition of human alphaV-beta5 integrin binding in ELISA
# Format: protein-complex assay
Reported IC50 by item:
Provide the reading as a plain figure in nM.

>  <compound_structure_string>
CNc1cccc(CCOc2ccc3c(ccn3CCC(=O)O)c2)n1

>  <target_of_assay>
Integrin alpha-V/beta-5 (Homo sapiens, UniProt P06756+P18084)

>  <number>
210

$$$$
>  <compound_structure_string>
O=C(O)CCn1ccc2cc(OCCCNc3ccccn3)ccc21

>  <target_of_assay>
Integrin alpha-V/beta-5 (Homo sapiens, UniProt P06756+P18084)

>  <number>
2.5

$$$$
>  <compound_structure_string>
CNc1cccc(CCOc2ccc3c(CCC(=O)O)csc3c2)n1

>  <target_of_assay>
Integrin alpha-V/beta-5 (Homo sapiens, UniProt P06756+P18084)

>  <number>
140

$$$$

Look up Integrin alpha-V/beta-5 (Homo sapiens, UniProt P06756+P18084) data: IC50 of "CNc1cccc(CCOc2ccc3c(CCC(=O)O)coc3c2)n1" , then report it.
420

====

# protocol: Oral bioavailability in mouse (dose 50 mg/kg)
# Format: ADME, organism-based
# condition_label: in vivo
test_readout: bioavailability (%)
Write it as a number; the unit % goes unstated.

Example entries begin here.
>  <compound_structure_string>
CNc1cccc(CCOc2ccc3c(CCC(=O)O)coc3c2)n1

>  <bioavailability / %>
114

$$$$
>  <compound_structure_string>
CNc1cccc(CCOc2ccc3c(ccn3CCC(=O)O)c2)n1

>  <bioavailability / %>
90

$$$$

Determine from records and report bioavailability for "CNc1cccc(CCOc2ccc3c(CCC(=O)O)csc3c2)n1"
73

====

Reported half-life values for the following compounds.
# protocol: Half life in mouse upon 5 mpk intravenous administration
# Format: ADME, organism-based
# condition_label: in vivo, 5 mg/kg
Quick reminder: number only, in min, skip the unit.

>  <compound_structure_string>
CNc1cccc(CCOc2ccc3c(CCC(=O)O)csc3c2)n1

>  <half-life, min>
44.4

$$$$
>  <compound_structure_string>
CNc1cccc(CCOc2ccc3c(CCC(=O)O)coc3c2)n1

>  <half-life, min>
5.4

$$$$

Please turn your attention to the following entry.
Recall and state the measured half-life for "CNc1cccc(CCOc2ccc3c(ccn3CCC(=O)O)c2)n1" .
93.6

====

# target_of_assay: Integrin alpha-5/beta-1 (Homo sapiens, UniProt P05556+P08648)
# Sequence (P05556 21-798 limits assumed): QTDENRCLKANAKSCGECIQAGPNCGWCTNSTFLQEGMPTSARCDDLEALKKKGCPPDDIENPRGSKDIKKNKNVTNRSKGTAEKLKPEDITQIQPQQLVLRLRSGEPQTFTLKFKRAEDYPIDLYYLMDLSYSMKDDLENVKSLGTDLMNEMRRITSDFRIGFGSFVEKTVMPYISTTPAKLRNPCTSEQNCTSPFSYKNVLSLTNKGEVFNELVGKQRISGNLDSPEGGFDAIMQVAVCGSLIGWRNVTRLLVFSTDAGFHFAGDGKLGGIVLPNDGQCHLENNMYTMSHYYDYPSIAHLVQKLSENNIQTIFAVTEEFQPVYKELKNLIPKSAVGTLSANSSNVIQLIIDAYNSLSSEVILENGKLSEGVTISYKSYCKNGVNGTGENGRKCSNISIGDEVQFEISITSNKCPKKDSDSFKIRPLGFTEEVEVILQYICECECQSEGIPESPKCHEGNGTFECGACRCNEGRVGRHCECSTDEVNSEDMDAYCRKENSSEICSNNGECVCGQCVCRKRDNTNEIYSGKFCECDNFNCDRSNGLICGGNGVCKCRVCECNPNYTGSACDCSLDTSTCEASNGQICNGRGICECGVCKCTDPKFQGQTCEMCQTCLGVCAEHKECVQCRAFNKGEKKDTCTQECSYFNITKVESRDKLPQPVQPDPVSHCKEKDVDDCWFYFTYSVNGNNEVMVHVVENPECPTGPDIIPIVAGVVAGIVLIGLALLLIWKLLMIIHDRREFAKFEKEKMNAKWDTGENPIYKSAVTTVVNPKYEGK
# Sequence (P08648 42-894 limits assumed): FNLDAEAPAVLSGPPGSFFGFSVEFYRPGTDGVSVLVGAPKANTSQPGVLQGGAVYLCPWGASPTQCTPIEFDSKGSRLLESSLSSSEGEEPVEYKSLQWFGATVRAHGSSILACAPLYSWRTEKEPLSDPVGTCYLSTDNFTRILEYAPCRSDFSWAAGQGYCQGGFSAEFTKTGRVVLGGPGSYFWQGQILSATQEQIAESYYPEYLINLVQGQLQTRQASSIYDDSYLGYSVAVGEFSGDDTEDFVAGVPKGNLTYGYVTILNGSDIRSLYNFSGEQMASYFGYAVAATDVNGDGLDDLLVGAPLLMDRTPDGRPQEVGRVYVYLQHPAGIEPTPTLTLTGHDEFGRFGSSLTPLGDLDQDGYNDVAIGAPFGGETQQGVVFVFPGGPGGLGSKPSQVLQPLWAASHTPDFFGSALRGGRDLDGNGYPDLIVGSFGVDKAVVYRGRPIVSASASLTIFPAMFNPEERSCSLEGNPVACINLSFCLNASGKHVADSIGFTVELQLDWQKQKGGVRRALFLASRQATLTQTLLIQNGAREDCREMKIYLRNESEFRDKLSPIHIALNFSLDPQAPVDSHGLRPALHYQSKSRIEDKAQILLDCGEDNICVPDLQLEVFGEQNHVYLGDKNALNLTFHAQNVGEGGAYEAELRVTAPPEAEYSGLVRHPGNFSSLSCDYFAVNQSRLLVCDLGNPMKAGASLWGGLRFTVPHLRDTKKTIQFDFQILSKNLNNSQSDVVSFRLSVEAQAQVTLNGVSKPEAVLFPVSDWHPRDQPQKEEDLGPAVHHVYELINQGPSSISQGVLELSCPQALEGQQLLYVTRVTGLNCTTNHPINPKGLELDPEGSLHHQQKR
# Sequence (P08648 895-1049 limits assumed): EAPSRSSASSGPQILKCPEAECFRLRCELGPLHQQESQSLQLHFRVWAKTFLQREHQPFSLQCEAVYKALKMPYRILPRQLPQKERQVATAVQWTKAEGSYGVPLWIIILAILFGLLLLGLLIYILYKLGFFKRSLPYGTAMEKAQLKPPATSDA
# protocol: In vitro inhibition of human alpha5-beta1 integrin binding in ELISA
test_readout: IC50 (µM)
Could you give me the number in µM? Just the number is fine.

>  <compound_structure_string>
CNc1cccc(CCOc2ccc3c(ccn3CCC(=O)O)c2)n1

>  <test_readout>
IC50

>  <number>
15

$$$$

Tell me measured IC50 for "CNc1cccc(CCOc2ccc3c(CCC(=O)O)csc3c2)n1" please.
7.8

====

# System: Caco-2
# protocol: In vitro CACO-2 cell permeability potency was determined
# Assay type: functional, cell-based
# condition_label: Homo sapiens
test_readout: Permeability
Quote the value and follow it with the unit of measurement.

# example entries with known answers
>  <compound_structure_string>
CNc1cccc(CCOc2ccc3c(CCC(=O)O)coc3c2)n1

>  <Permeability>
1.7e-05 AB cm/s

$$$$
>  <compound_structure_string>
CNc1cccc(CCOc2ccc3c(CCC(=O)O)csc3c2)n1

>  <Permeability>
1.6e-05 AB cm/s

$$$$
>  <compound_structure_string>
CNc1cccc(CCOc2ccc3c(ccn3CCC(=O)O)c2)n1

>  <Permeability>
6e-06 AB cm/s

$$$$

From here, focus on the item given below.
Return value of Permeability for input "O=C(O)CCn1ccc2cc(OCCCNc3ccccn3)ccc21" , no commentary.
6e-06 AB cm/s

====

# protocol: Maximum concentration in mouse plasma upon 50 mpk peroral administration (n=3)
# Type: ADME, organism-based
# Parameters: dose 50 mpk, route oral
# condition_label: po, 50 mg/kg
Quick reference: Cmax of the listed items.
# number only, unit ng/mL dropped from output

>  <compound_structure_string>
CNc1cccc(CCOc2ccc3c(CCC(=O)O)csc3c2)n1

>  <Cmax (ng/mL)>
27500

$$$$
>  <compound_structure_string>
CNc1cccc(CCOc2ccc3c(ccn3CCC(=O)O)c2)n1

>  <Cmax (ng/mL)>
38300

$$$$

Kindly consider the entry below.
Read the entry "CNc1cccc(CCOc2ccc3c(CCC(=O)O)coc3c2)n1" and write its reported Cmax.
16200
